Value source: PubChem BioAssay (NCI)

Tested on: SF-295 CNS
Assay: NCI tumour cell line growth inhibition, 48 h
reportedMetric: TGI (µM)
A number alone suffices; assume µM.

Worked examples follow.
{"columns": ["smilesText", "TGI [µM]"],
 "data": [
  ["CCN(C(=O)N1CCN(c2cc3c(cc2F)c(=O)c(C(=O)O)cn3C2CC2)CC1)c1nc(-c2ccc(Cl)cc2)cs1", 6],
  ["Cc1nnc(NC(=O)c2nc(S(=O)(=O)Cc3ccc(F)cc3)ncc2Cl)s1", 30.7],
  ["O=C(OCc1ccccc1)N1CCNCCN(C(=O)OCc2ccccc2)CCNCC1", 64.3],
  ["Cc1cc(-c2nc3ccc(F)cc3s2)ccc1NC(=O)[C@H](C)N", 24.7]
]}

Could you now look at the following compound, please?
Entry CCCCOC(=O)Nc1ccc(S(=O)(=O)Nc2ccccc2Cl)cc1 , TGI reported as 32.9
